- System: Normal epithelial VERO cells
- method: MTT cytotoxicity assay, normal epithelial VERO cells (non-cancer control)
- Assay type: cell-based, African green monkey
- condition notes: 48 h incubation, three independent experiments, read-out: Growth Inhibition of Cells (GI50 ± SEM) VERO
GI50 reference
Could you give me the number in µM? Just the number is fine.

OC[C@H]1O[C@@H](Oc2ccc(/C=C/c3cc(O)cc(O)c3)cc2)[C@H](O)[C@@H](O)[C@@H]1O [Compound 12, (E)-resveratrol 4′-O-β-D-glucopyranoside] : 98

Would you kindly look at the next entry?
Lab book: GI50 of COc1ccc(C=Cc2cc(O)cc(OC3OC(CO)C(O)C(O)C3O)c2)cc1 (centres unmarked) [Compound 11] noted as 92

* * *

- Test system: DU-145 prostate cancer cell line
- method: MTT cytotoxicity assay, DU-145 prostate cancer cells
- Format: cell-based, human
- condition notes: Homo sapiens, DU-145, 48 h incubation, three independent experiments, read-out: Growth Inhibition of Cells (GI50 ± SEM) DU-145
GI50 reference
Could you give me the number in µM? Just the number is fine.

CC(=O)CCc1ccc(O)cc1 [Compound 9, 4-(4-Hydroxyphenyl)butan-2-one] : 60
COc1cccc2c1C(=O)c1c(O)c3c(c(O)c1C2=O)C[C@@](O)(C(=O)CO)C[C@@H]3O[C@H]1C[C@H](N)[C@H](O)[C@H](C)O1 [Doxorubicin, reference compound] : 15
C[C@@H](O)CCc1ccc(O)cc1 [Compound 4, (R)-4-(4-Hydroxyphenyl)-2-butanol] : 21

Would you kindly look at the next entry?
Lab book: GI50 of C[C@H](CCc1ccc(O)cc1)O[C@@H]1O[C@H](CO)[C@@H](O)[C@H](O)[C@H]1O noted as 21

* * *

- System: SNB-19 glioblastoma cell line
- method: MTT cytotoxicity assay, SNB-19 glioblastoma cells
- Assay type: cell-based, human
- condition notes: Homo sapiens, SNB-19, 48 h incubation, three independent experiments, read-out: Growth Inhibition of Cells (GI50 ± SEM) SNB-19
observed property: GI50

Some compounds with known GI50 results, for comparison:
CC(=O)CCc1ccc(O)cc1 [Compound 9, 4-(4-Hydroxyphenyl)butan-2-one] : 33 µM
OC[C@H]1O[C@@H](Oc2ccc(/C=C/c3cc(O)cc(O)c3)cc2)[C@H](O)[C@@H](O)[C@@H]1O [Compound 12, (E)-resveratrol 4′-O-β-D-glucopyranoside] : 9.2 µM
C[C@@H](O)CCc1ccc(O)cc1 [Compound 4, (R)-4-(4-Hydroxyphenyl)-2-butanol] : 15 µM
COc1cccc2c1C(=O)c1c(O)c3c(c(O)c1C2=O)C[C@@](O)(C(=O)CO)C[C@@H]3O[C@H]1C[C@H](N)[C@H](O)[C@H](C)O1 [Doxorubicin, reference compound] : 7.6 µM
COc1ccc(C=Cc2cc(O)cc(OC3OC(CO)C(O)C(O)C3O)c2)cc1 (stereo not drawn) : 13 µM

Would you kindly look at the next entry?
Lab book: GI50 of C[C@H](CCc1ccc(O)cc1)O[C@@H]1O[C@H](CO)[C@@H](O)[C@H](O)[C@H]1O noted as 23 µM

* * *

- Tested on: T98G glioblastoma cell line
- method: MTT cytotoxicity assay, T98G glioblastoma cells
- Format: cell-based, human
- condition notes: Homo sapiens, T98G, 48 h incubation, three independent experiments, read-out: Growth Inhibition of Cells (GI50 ± SEM) T98G
observed property: GI50 (µM)
Could you give me the number in µM? Just the number is fine.

Some compounds with known GI50 results, for comparison:
OC[C@H]1O[C@@H](Oc2ccc(/C=C/c3cc(O)cc(O)c3)cc2)[C@H](O)[C@@H](O)[C@@H]1O [Compound 12, (E)-resveratrol 4′-O-β-D-glucopyranoside] : 21
COc1cccc2c1C(=O)c1c(O)c3c(c(O)c1C2=O)C[C@@](O)(C(=O)CO)C[C@@H]3O[C@H]1C[C@H](N)[C@H](O)[C@H](C)O1 [Doxorubicin, reference compound] : 13
CC(=O)CCc1ccc(O)cc1 [Compound 9, 4-(4-Hydroxyphenyl)butan-2-one] : 19
COc1ccc(C=Cc2cc(O)cc(OC3OC(CO)C(O)C(O)C3O)c2)cc1 (stereo not drawn) [Compound 11] : 18
C[C@@H](O)CCc1ccc(O)cc1 [Compound 4, (R)-4-(4-Hydroxyphenyl)-2-butanol] : 18

Would you kindly look at the next entry?
Lab book: GI50 of C[C@H](CCc1ccc(O)cc1)O[C@@H]1O[C@H](CO)[C@@H](O)[C@H](O)[C@H]1O [Compound 1] noted as 29
